details: buffer; pH 7.4; 200.0 µM

# MOLECULE, solubility kinetic
records = [
    ("O=C(O)/C=C/C(=O)Nc1ccc(Oc2ncnc3cc(Cl)ccc23)nc1", "> 55.6 µg/mL"),
    ("COc1ccc(CN(C)C(=O)CCl)cc1", "> 34.2 µg/mL"),
    ("O=S1(=O)CCC(NS(=O)(=O)c2ccc3ccccc3c2)C1 (centres undefined)", "> 48.8 µg/mL"),
    ("O=C(CNS(=O)(=O)c1ccc(F)cc1)N1CCOCC1", "> 45.3 µg/mL"),
    ("CSc1cccc(NC(=O)C(=O)NCc2ccccc2)c1", "< 0.3 µg/mL"),
    ("CCN(CC(=O)NCCC1=CCCCC1)S(=O)(=O)c1ccccc1", "> 52.6 µg/mL"),
    ("COc1cc2c(cc1OC)CN(C(=O)c1ccc(Br)o1)CC2", "> 54.9 µg/mL"),
    ("CCCn1c(=O)c2c(nc3n2CCN3Cc2ccco2)n(C)c1=O", "> 49.4 µg/mL"),
    ("O=c1[nH]c(O)c(C=Nc2ccccc2Sc2ccccc2)c(=O)[nH]1", "1.3 µg/mL"),
    ("COC(=O)c1sccc1NC(=O)c1ccc(Cl)cc1", "< 0.6 µg/mL"),
    ("O=Cc1c(Nc2ccccc2Cl)nc2ccccn2c1=O", "< 0.2 µg/mL"),
    ("Cc1cc(C)c(C2=CSC3=NS(=O)(=O)CCN23)c(C)c1", "> 46.3 µg/mL"),
    ("CCOC(=O)Cc1csc(NC(=O)Cc2ccc(Br)cc2)n1", "5.9 µg/mL"),
    ("CC(C)Oc1ccccc1Cn1c(=O)oc2ccccc21", "9 µg/mL"),
    ("Cc1[nH]c2c(Cl)cccc2c(=O)c1CN1CCCCCC1", "> 45.7 µg/mL"),
    ("COc1ccccc1N(CC(=O)N1CCCC1)S(=O)(=O)c1cc([N+](=O)[O-])ccc1Cl", "6.8 µg/mL"),
    ("CCN(CC)S(=O)(=O)c1ccc(/C=C/C(=O)OCC(=O)NC(=O)C2COc3ccccc3O2)cc1 (centres undefined)", "21 µg/mL"),
    ("COc1ccc(CC(=O)Nc2nc(C)cs2)cc1", "27.2 µg/mL"),
    ("Cc1ccc(S(=O)(=O)N2CCn3cccc3C2C)cc1 (centres undefined)", "> 43.6 µg/mL"),
    ("O=C(Nc1ccc(COc2ccccc2)cc1)Nc1cccc(C(=O)O)c1", "12.1 µg/mL"),
    ("COc1cccc(C(=O)Nc2ccc3c(c2)n(C)c(=O)n3C)c1", "> 46.7 µg/mL"),
    ("Cc1ccc(C(=O)OCC(=O)NC(C)c2ccccc2)s1 (centres undefined)", "16.1 µg/mL"),
    ("O=C(NC(=S)N1CCCC1)c1ccc(Cl)cc1", "35.4 µg/mL"),
    ("CC(C)c1ccc(/C=C/C(=O)N2CCOCC2)cc1", "36.3 µg/mL"),
]
